experimentalSystem: steroid sulphatase in placental microsomes (Homo sapiens, UniProt P08842)
Construct: Sulphatase-positive human placenta from normal term pregnancies; from tissue; host or cells: human term placenta (Obstetric Ward, St. Mary's Hospital, London), 2000 g supernatant of the homogenate
Sequence (P08842 22-583): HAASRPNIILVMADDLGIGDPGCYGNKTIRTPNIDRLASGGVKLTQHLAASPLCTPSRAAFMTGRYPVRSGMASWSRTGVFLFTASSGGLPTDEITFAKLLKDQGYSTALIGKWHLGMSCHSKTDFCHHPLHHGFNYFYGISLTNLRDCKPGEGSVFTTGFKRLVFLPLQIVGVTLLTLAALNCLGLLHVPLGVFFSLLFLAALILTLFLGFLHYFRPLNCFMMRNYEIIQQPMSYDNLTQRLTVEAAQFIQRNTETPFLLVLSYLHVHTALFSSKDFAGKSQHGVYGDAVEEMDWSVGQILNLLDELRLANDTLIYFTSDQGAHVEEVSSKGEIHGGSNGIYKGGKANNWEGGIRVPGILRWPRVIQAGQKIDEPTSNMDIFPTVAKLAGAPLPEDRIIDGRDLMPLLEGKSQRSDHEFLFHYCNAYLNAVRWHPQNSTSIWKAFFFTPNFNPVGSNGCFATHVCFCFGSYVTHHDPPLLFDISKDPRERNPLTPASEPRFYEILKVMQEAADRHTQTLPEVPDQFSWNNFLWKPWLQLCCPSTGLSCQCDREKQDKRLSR
assayMethodText: Inhibition of Steroid Sulphatase Activity in Placental Microsomes ([6,7-^3 H]oestrone-3-sulphate substrate)
Assay type: biochemical
measurementConditions: 20 μM oestrone-3-sulphate, 100 μg/ml protein, 20 minutes, 37° C.; calculated IC50; Table III; read-out: Steroid Sulphatase Activity in placental microsomes in the presence of oestrone-3-phosphonates (IC50)
measurementName: pIC50
The value called pIC50 is obtained by taking minus log10 of the concentration in mol/L.

Briefly, pIC50 measured for C[C@]12CC[C@@H]3c4ccc(O[PH](=O)O)cc4CC[C@H]3[C@@H]1CCC2=O [E1-3-HP, oestrone-3-hydrogen-phosphonate] : 2.30
